method_notes: gradient 5% acetonitrile 3 min, to 50% in 2 min, to 85% in 15 min, held 3 min, 100 µL/min
protocol_conditions: column: Zorbax Extend-C18 2.1 x 50 mm; eluents: water / acetonitrile, 0.1% formic acid
measured_parameter: RP-LC retention time (s)

>>> number("FC(F)(F)c1ccc(CN2CCN(c3cnn4cnnc4c3)CC2)cc1")
594

a. CCn1c(=O)c2cc(C(N)=O)nn2c2ccccc21
b. CCc1ccc(-c2noc(Cn3c(=O)n(-c4cccc(OC)c4)c(=O)c4sccc43)n2)cc1
Ask: Lab notebook, comparison: a versus b , higher RP-LC retention time goes to which? Answer by stating the label of the chosen item.
Result: b
(b: 1060 s, a: 653 s)

* * *

method_notes: gradient 5% acetonitrile 3 min, to 50% in 2 min, to 85% in 15 min, held 3 min, 100 µL/min
protocol_conditions: column: Zorbax Extend-C18 2.1 x 50 mm; eluents: water / acetonitrile, 0.1% formic acid
measured_parameter: RP-LC retention time (s)

>>> number("Cc1oc2c(c1C(=O)Nc1cccc(Br)c1)C1=NCCN1C=N2")
643
>>> number("CCn1ccc2oc(C)c(C(=O)NCc3ccccc3Br)c2c1=O")
1020
>>> number("Cc1ccccc1Cn1c(CN2CCC(C(=O)NCCCN3CCCC3)CC2)cc2ccccc21")
646
>>> number("Cn1cc(-c2cc3n(n2)CCCN3C(=O)CCC(=O)NCc2ccco2)c2ccccc21")
754
>>> number("CC1=C(c2ccc(Cl)cc2)S(=O)(=O)N=C1N1CCC(C(=O)NC(C)C)CC1")
779

* * *

method_notes: gradient 5% acetonitrile 3 min, to 50% in 2 min, to 85% in 15 min, held 3 min, 100 µL/min
protocol_conditions: column: Zorbax Extend-C18 2.1 x 50 mm; eluents: water / acetonitrile, 0.1% formic acid
measured_parameter: RP-LC retention time (s)

>>> number("COc1ccccc1OCCNC(=O)Cn1nc2c(cc1=O)CCCC2")
704

I. COc1ccc(C(=O)Nc2cnn(C)c(=O)c2N2CCOCC2)cc1OC
II. O=C(O)c1ccc(Nc2nc(-c3ccc(Br)cc3)cs2)cc1
Ask: Problem: Given the entries I and II , determine which has the lower reported RP-LC retention time. Return value: the label identifying the chosen record.
Result: I

* * *

method_notes: gradient 5% acetonitrile 3 min, to 50% in 2 min, to 85% in 15 min, held 3 min, 100 µL/min
protocol_conditions: column: Zorbax Extend-C18 2.1 x 50 mm; eluents: water / acetonitrile, 0.1% formic acid
measured_parameter: RP-LC retention time (s)

The following compounds have reported results that may help.
>>> number("O=[N+]([O-])c1ccc(-c2nc(N3CCOCC3)c3ccccc3n2)cc1")
833
>>> number("CCN1C(=O)COc2ccc(-c3noc(-c4cccc(Cl)c4)n3)cc21")
1250
>>> number("Cc1ccc(Nc2c(-c3ccc(Cl)cc3)nc3ccccn23)cc1")
787
>>> number("O=C(Cc1ccc(F)cc1)NC1CCN(c2cc(-c3cccs3)[nH]n2)C1 (centres undefined)")
707
>>> number("CCn1cc(-c2nc(-c3ccc(F)cc3)no2)c(=O)c2cc(F)c(N3CCOCC3)cc21")
951

a. COc1cccc(CNC(=O)Cn2c(=O)c3cc(C4CC4)nn3c3ncccc32)c1
b. Cc1cc(C)cc(NC(=O)Nc2nccn(-c3cccc(Cl)c3)c2=O)c1
Ask: Lower value of RP-LC retention time belongs to which: a or b ? # reply format: chosen label
Result: a
